- targetUnderTest: Macrophage migration inhibitory factor (Homo sapiens)
- Sequence (P14174 whole entry): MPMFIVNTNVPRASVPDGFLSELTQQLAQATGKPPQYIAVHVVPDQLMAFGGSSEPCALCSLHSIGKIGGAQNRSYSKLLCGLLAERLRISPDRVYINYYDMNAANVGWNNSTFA
- procedureDetails: Inhibition of human recombinant MIF tautomerase
measuredMetric: pIC50
Answers are plain numbers, as −log10 of the molar value.

For each of the items listed, what is its pIC50?
1. Oc1csc(Cc2nc(-c3ccc(-c4ccccc4)cc3)cs2)n1
2. CC(C)(C)OC(=O)C[C@H]1CC(c2ccc(O)c(F)c2)=NO1 (racemic)
3. O=C(O)COc1ccc2occ(C(=O)c3ccccc3)c2c1
4. O=c1[nH]nc(-c2cccs2)cc1Cc1ccc(Cl)c(Cl)c1
5. Oc1c(C(Nc2cccc(F)c2)c2ccccn2)ccc2cccnc12 (stereo not given)

1: 3.52; 2: 6.26; 3: 3.01; 4: 3.37; 5: 3.28

---

For each entry below, report its log10 of IC50 value.
- targetUnderTest: MIF/CD74 (Macrophage migration inhibitory factor and HLA-DR antigens-associated invariant chain) (Homo sapiens, UniProt P04233+P14174)
- procedureDetails: Inhibition of human MIF-CD74 binding
Hey, these are logged values: log10 of IC50, µM being the unit before logging.

O=C(c1cc2ccccc2o1)N1CCc2ccccc21 : 0.60

For each of the items listed, what is its log10 of IC50?
1. O=C(O)c1cccc(-c2cc[nH]n2)c1
2. CC(=O)Oc1ccc2nc(-c3cc4ccccc4o3)oc(=O)c2c1
3. Oc1ccc2c(c1)oc1ccccc12
4. Oc1c(C(Nc2cccc(F)c2)c2ccccn2)ccc2cccnc12 (stereo unspecified)
5. O=C(O)COc1ccc2occ(C(=O)c3ccccc3)c2c1
6. O=C(O)c1cc(-n2cnnn2)ccc1O
7. Oc1ccc(/C=C/c2ccc3cccc(O)c3n2)cc1
8. O=C(O)c1cc(-n2cnnc2)ccc1Cl

1.18
0.40
2.95
0.40
3.18
2.74
0.90
2.40

For each of the items listed, what is its log10 of IC50?
1. Oc1csc(Cc2nc(-c3ccc(-c4ccccc4)cc3)cs2)n1
2. O=c1[nH]nc(-c2cccs2)cc1Cc1ccc(Cl)c(Cl)c1

[1.81, 2.40]
